pKi values by entry
target under test: α1B adrenoceptor (Rattus norvegicus)
Construct: from tissue; host or cells: rat liver membranes
Sequence (P15823 whole entry): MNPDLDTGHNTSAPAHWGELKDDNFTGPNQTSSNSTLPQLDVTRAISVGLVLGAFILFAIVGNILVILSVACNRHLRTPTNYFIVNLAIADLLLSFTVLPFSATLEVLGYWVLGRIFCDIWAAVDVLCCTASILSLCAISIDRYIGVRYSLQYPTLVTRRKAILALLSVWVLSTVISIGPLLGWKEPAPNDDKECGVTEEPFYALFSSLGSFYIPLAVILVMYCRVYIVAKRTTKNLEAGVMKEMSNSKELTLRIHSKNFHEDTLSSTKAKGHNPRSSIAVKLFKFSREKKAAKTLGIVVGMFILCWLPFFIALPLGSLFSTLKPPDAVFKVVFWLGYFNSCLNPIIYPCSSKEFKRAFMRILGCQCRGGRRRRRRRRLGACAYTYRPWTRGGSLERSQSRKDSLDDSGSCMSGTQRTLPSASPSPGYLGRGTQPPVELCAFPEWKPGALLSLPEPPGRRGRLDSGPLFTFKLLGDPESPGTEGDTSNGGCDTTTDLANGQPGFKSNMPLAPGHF
assay: Receptor binding assay, displacement of [3H]prazosin, rat liver membranes
condition label: [3H]prazosin displacement, rat liver membranes; read-out: α1B (Rat liver) Ki
pKi: −log10 of the molar value.

[
  {
    "compound": "Cl.O=C1C2CC=CCC2C(=O)N1CCCN1CCN(c2ccc(Cl)cc2Cl)CC1 (stereo not drawn) [Compound 20, hydrochloride]",
    "pKi": "< 6.30"
  },
  {
    "compound": "Cl.O=C1C2CC=CCC2C(=O)N1CCCN1CCN(Cc2ccccc2)CC1 (stereo not drawn) [Compound 14, hydrochloride]",
    "pKi": "< 6.30"
  }
]

Consider the additional compound presented here.
Lookup result for Cc1cccc(C)c1N1CCN(CCCN2C(=O)C3CC=CCC3C2=O)CC1.Cl (stereo not drawn) [Compound 22, hydrochloride] ; measured pKi: < 6.30

---

Catalogue of Ki readings, one per entry.
target under test: α1A adrenoceptor (Rattus norvegicus, UniProt P43140)
Construct: from tissue; host or cells: rat submaxillary gland membranes
Sequence (P43140 whole entry): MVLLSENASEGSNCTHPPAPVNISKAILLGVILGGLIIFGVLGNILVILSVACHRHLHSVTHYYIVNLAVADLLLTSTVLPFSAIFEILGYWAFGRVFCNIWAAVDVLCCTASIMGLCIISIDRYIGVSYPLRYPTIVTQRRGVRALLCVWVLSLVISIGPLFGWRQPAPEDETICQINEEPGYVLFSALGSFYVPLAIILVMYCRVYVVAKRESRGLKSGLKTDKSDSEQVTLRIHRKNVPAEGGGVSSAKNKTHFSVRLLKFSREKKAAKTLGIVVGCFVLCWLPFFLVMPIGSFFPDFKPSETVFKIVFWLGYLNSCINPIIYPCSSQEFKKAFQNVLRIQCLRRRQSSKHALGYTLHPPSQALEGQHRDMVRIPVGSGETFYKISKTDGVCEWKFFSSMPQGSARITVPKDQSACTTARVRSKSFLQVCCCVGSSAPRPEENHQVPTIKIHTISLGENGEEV
assay: Receptor binding assay, displacement of [3H]prazosin, rat submaxillary membranes
condition label: [3H]prazosin displacement, rat submaxillary membranes; read-out: α1A (Rat submaxillary) Ki

Completed entries (count: 2):
[
  {
    "molecule": "Cl.O=C1C2CC=CCC2C(=O)N1CCCN1CCN(c2ccc([N+](=O)[O-])cc2)CC1 (stereo not drawn) [Compound 16, hydrochloride]",
    "target under test": "α1A adrenoceptor (Rattus norvegicus, UniProt P43140)",
    "Ki": "> 0.5 µM"
  },
  {
    "molecule": "CC(C)(C)c1ccc(N2CCN(CCCN3C(=O)C4CC=CCC4C3=O)CC2)cc1.Cl (stereo not drawn) [Compound 27, hydrochloride]",
    "target under test": "α1A adrenoceptor (Rattus norvegicus, UniProt P43140)",
    "Ki": "> 0.5 µM"
  }
]

Value of Ki reported for the molecule COc1ccc(N2CCN(CCCN3C(=O)C4CC=CCC4C3=O)CC2)c(OC)c1.Cl (stereo not drawn) [Compound 21, hydrochloride] is > 0.5 µM
